Test: Plasma pharmacokinetics, study INCB 57643-101
Type: in vivo, human
Conditions: human, plasma, oral
ENDPOINT: half-life

Notebook: CN1C(=O)C(C)(C)Oc2c(-c3cn(C)c(=O)c4[nH]ccc34)cc(S(C)(=O)=O)cc21 [INCB057643] , half-life read as ~10 h
